# method notes: Pharmacokinetics of artesunate (AS) in plasma after multiple intravenous doses, compartmental analysis (Phase 1b)
# Format: in vivo, human
# condition summary: human, plasma, iv, 4 mg/kg, Day 3; AS 4 mg/kg iv daily for 3 days, 2 min infusion; mean (CV%), n = 6; CA; read-out: CL_obs
readout kind: clearance (mL/min/kg)
Numbers only, in mL/min/kg.

Query C[C@H]1[C@H](OC(=O)CCC(=O)O)O[C@@H]2O[C@@]3(C)CC[C@H]4[C@H](C)CC[C@@H]1[C@@]24OO3 yields clearance of 23

----------
# method notes: Pharmacokinetics of artesunate (AS) in plasma after multiple intravenous doses, compartmental analysis (Phase 1b)
# Assay type: in vivo, human
# condition summary: human, plasma, iv, 8 mg/kg, Day 1; AS 8 mg/kg iv daily for 3 days, 2 min infusion; mean (CV%), n = 6; CA; read-out: MRT
readout kind: MRT

Query C[C@H]1[C@H](OC(=O)CCC(=O)O)O[C@@H]2O[C@@]3(C)CC[C@H]4[C@H](C)CC[C@@H]1[C@@]24OO3 yields MRT of 6 min
